- target: T1, human IL-33 (R&D Systems, #3625-IL-010/CF) (human, UniProt O95760 112-270)
- T1 construct: also called hIL-33; huIL-33
- T1 sequence (looked up): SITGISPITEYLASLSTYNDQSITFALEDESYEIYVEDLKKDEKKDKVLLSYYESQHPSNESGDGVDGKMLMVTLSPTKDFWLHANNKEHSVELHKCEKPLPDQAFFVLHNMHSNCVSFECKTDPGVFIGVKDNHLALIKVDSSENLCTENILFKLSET
- protocolSummary: SPR Biacore T200, 37 C
pKd: −log10 of the molar value.
experimentalReadout: pKd

H4H9640P (antibody, IgG4, V domains shown, also called RG6) VH: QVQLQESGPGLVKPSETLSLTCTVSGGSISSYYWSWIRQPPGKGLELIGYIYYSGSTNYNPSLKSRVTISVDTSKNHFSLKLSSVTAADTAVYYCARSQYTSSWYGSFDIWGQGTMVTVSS VL: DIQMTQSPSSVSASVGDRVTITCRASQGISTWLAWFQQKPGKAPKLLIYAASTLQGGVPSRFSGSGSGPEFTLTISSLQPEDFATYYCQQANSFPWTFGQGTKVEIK
9.44
H4H9659P (antibody, IgG4, V domains shown, also called RG7) VH: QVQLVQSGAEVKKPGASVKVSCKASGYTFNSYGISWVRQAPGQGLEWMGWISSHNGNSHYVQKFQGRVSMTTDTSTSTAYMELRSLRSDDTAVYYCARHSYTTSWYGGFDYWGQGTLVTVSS VL: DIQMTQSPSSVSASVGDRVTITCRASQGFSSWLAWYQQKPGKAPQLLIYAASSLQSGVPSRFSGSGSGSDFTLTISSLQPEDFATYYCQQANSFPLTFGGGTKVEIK
9.34
10C12.38.H6.87Y.58I IgG4 (antibody, V domains shown, also called anti-IL33 10C12.38.H6.87Y.58I IgG4) VH: EVQLVESGGGLVQPGGSLRLSCAASGFTFSSFSMSWVRQAPGKGLEWVATISGGKTFTDYVDSVKGRFTISRDDSKNTLYLQMNSLRAEDTAVYYCTRANYGNWFFEVWGQGTLVTVSS VL: EIVLTQSPATLSLSPGERATLSCRASESVAKYGLSLLNWFQQKPGQPPRLLIFAASNRGSGIPARFSGSGSGTDFTLTISSLEPEDFAVYYCQQSKEVPFTFGQGTKVEIKR
10.05
